Data origin, for the record: patent US20240400579A1

- Tested on: EpiSC-derived OPCs
- Assay explanation: In vitro phenotypic screening of OPCs, MBP high-content imaging
- Format: cell-based, mouse
- Condition description: Mus musculus, 72 h, percentage of MBP+ oligodendrocytes; 3 days; 0.5 nM to 1000 nM; read-out: mOPC EC50
pEC50: −log10 of the molar value.
Measured endpoint: pEC50

Answered cases to consult:
>  <Compound>
CC(C)n1nc(C(F)(F)F)cc1C[C@@H](C)CN1CCC2(C1)CS(=O)(=O)C2 (single isomer, unassigned) [235A*]

>  <Target under test>
EpiSC-derived OPCs

>  <pEC50>
7.70

$$$$
>  <Compound>
O=S1(=O)CC2(CCN(CC3(Oc4ccc(C(F)(F)F)cc4)CCC3)CC2)C1 [Compound 222]

>  <Target under test>
EpiSC-derived OPCs

>  <pEC50>
7.80

$$$$
>  <Compound>
O=S1(=O)CCC2(CC1)CN(CCCc1ccc(C(F)(F)F)nc1)C2 [Compound 223]

>  <Target under test>
EpiSC-derived OPCs

>  <pEC50>
6.45

$$$$

[1] CC(C)(CN1CCC2(C1)CS(=O)(=O)C2)Oc1ccc(C(F)(F)F)nc1 [Example 135]
[2] C[C@@H](CN1CCC2(CC1)CS(=O)(=O)C2)Oc1ccc(F)c(F)c1 (single isomer, unassigned) [221A*]
[3] C[C@@H](Cc1ccc(C(F)F)cc1)CN1CCC2(C1)CS(=O)(=O)C2 (single isomer, unassigned) [Compound 128A]
[4] C[C@@H](Cc1ccc(C(F)(F)F)cc1)CN1CCC2(C1)CS(=O)(=O)C2 (single isomer, unassigned) [114A*]
Ask: Descending sort on pEC50 required. A ranking is expressed here by listing the labels in the requested order.
Reply: 4, 2, 1, 3

====

- Target under test: human EBP (Homo sapiens (Human), UniProt Q15125)
- Sequence (Q15125 whole entry): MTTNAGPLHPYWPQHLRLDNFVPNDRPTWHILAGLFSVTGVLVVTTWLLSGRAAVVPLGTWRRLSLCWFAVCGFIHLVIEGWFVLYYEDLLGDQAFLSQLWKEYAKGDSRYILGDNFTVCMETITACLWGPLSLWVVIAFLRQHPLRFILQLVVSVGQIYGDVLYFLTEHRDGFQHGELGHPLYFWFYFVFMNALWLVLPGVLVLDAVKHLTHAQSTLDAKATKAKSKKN
- Assay explanation: Competition binding assay (SPA) to determine compound affinity to EBP
- Condition description: radioligand [3H]-Ifenprodil 10 nM; Ki=IC50/(1+[L]/Kd); HEK293 membrane; read-out: hEBP SPA Ki
pKi: −log10 of the molar value.
Measured endpoint: pKi

Answered cases to consult:
>  <Compound>
CC(C)(CN1CCC2(C1)CS(=O)(=O)C2)Oc1cccc(OC(F)(F)F)c1

>  <Measured endpoint>
pKi

>  <Assay result>
7.51

$$$$
>  <Compound>
O=S1(=O)CC2(CCN(CCOc3ccc(C(F)(F)F)nc3)CC2)C1

>  <Measured endpoint>
pKi

>  <Assay result>
7.66

$$$$

[1] C[C@H](Cc1ccc(C(F)(F)F)cc1)CN1CCC2(C1)CS(=O)(=O)C2 (single isomer, unassigned) [114B*]
[2] O=S1(=O)CC2(CCN(CC[C@H](F)c3ccc(C(F)(F)F)cc3)C2)C1 (single isomer, unassigned) [Compound 122B]
Ask: Which has the higher pKi, 1 or 2 ? Return value: the label identifying the chosen record.
Reply: 2
(2: 7.74, 1: 7.47)

====

- Target under test: human emopamil binding protein and human 7-dehydrocholesterol reductase co-expressing cell membrane (Homo sapiens (Human))
- Sequence (Q15125 whole entry): as above
- Assay explanation: hEBP-DHCR7 radioligand filtration binding assay with [3H]-Compound 118A*
- Condition description: radioligand [3H]-Compound 118A*; HEK293 membrane co-expressing hEBP and DHCR7
Measured endpoint: Ki (nM)

Answered cases to consult:
>  <Compound>
CC(Cc1ccc(C2CCC2)cc1)CN1CCC2(C1)CS(=O)(=O)C2 (racemic) [Compound 109A]

>  <Unit label>
nM

>  <Ki>
12.5

$$$$
>  <Compound>
O=S1(=O)CC2(CCN(CCOc3ccnc(C(F)(F)F)c3)CC2)C1

>  <Unit label>
nM

>  <Ki>
17

$$$$
>  <Compound>
C[C@@H](Cc1ccc(C2CCC2)cc1)CN1CCC2(C1)CS(=O)(=O)C2 (single isomer, unassigned) [109C*]

>  <Unit label>
nM

>  <Ki>
5.14

$$$$
>  <Compound>
C[C@@H](Cc1cnn(CC(F)(F)F)c1)CN1CCC2(C1)CS(=O)(=O)C2 (single isomer, unassigned) [Compound 154A]

>  <Unit label>
nM

>  <Ki>
176

$$$$

[P] CCC(C)(C)c1ccc(CC(C)CN2CCC3(CCS(=O)(=O)C3)C2)cc1 (stereo not drawn)
[Q] O=S1(=O)CC2(CCN(CC3(Oc4ccc(C(F)(F)F)cc4)CCC3)CC2)C1
Ask: Which has the higher Ki, P or Q ? Return value: the label identifying the chosen record.
Reply: P
(P: 8.38 nM, Q: 3.7 nM)

[P] O=S1(=O)CC2(CCN(CCOc3cncc(F)c3)CC2)C1
[Q] CC(C)(CN1CCC2(C1)CS(=O)(=O)C2)Oc1cccc(OC(F)(F)F)c1
Ask: Please indicate which entry, P or Q , has the lower recorded Ki value. Return value: the label identifying the chosen record.
Reply: Q
